biological target: βTrCP/Skp1 (Homo sapiens, UniProt Q9Y297); assay: Surface plasmon resonance (SPR), Biacore T200; format: binding; conditions: apparent KD averaged over both surfaces
Sequence (Q9Y297 whole entry): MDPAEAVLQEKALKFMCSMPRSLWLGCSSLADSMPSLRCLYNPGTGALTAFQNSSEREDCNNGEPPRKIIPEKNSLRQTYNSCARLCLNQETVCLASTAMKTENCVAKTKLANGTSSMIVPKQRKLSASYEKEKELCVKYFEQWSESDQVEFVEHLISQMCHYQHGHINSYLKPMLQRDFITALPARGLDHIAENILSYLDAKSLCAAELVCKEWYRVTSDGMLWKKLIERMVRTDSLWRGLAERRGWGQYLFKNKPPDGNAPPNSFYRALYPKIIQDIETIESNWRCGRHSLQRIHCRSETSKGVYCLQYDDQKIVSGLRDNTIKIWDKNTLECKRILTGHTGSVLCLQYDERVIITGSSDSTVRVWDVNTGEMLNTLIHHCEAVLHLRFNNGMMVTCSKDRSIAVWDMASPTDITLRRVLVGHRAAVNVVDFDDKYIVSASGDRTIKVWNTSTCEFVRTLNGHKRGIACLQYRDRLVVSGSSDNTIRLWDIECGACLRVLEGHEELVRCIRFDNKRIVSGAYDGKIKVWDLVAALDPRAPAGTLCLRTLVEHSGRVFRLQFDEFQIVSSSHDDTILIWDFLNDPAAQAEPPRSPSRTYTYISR
Sequence (P63208 whole entry partner): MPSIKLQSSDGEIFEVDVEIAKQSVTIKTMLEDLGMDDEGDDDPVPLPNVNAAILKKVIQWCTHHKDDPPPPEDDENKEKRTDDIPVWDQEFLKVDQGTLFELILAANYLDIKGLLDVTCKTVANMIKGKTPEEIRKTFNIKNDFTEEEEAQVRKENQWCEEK
Starred links: 1 amine or outer side, 2 acyl side, 3 side chain; linkers in the order of their positions; H or OH if unused. Non-standard residues stand in square brackets, D forms with d. Residues, ends and D or L forms follow the SMILES beside them. 1Nal = N[C@@H](Cc1cccc2ccccc12)C(=O)O; pS = N[C@@H](COP(=O)(O)O)C(=O)O; Suc = O=C(CCC(=O)[*:2])[*:1]
REPORTED_PROPERTY: Kd (µM)

COMPOUND	SYSTEM_NAME	REPORTED_MEASUREMENT
NC(=O)[C@H](CCC(=O)O)NC(=O)[C@H](Cc1cccc2ccccc12)NC(=O)[C@H](Cc1ccc(O)cc1)NC(=O)CNC(=O)[C@H](CCC(=O)O)NC(=O)CCC(=O)O [UBP009, Suc-EGY1NalE-NH2] (Suc-EGY[1Nal]E-NH2)	βTrCP/Skp1 (Homo sapiens, UniProt Q9Y297)	1.49
CC[C@H](C)[C@H](NC(=O)CNC(=O)[C@H](COP(=O)(O)O)NC(=O)[C@@H](N)CC(=O)O)C(=O)N[C@@H](Cc1ccccc1)C(=O)N[C@@H](CCC(=O)O)C(N)=O [UBP001, DpSGIFE-NH2] (H-D[pS]GIFE-NH2)	βTrCP/Skp1 (Homo sapiens, UniProt Q9Y297)	1.48
